Test: Compound was evaluated for inhibition of beta-glucosidase from almonds(sigma G 4511).
value-type: IC50 (µM)
The response must be a number in µM with no trailing unit.

# query: IC50 of entry CCCCN1CC(C)C(O)C(O)C1 (stereo unspecified) [1-Butyl-5-methyl-piperidine-3,4-diol]
80

----------
Assay: Inhibition of jack bean alpha-mannosidase
pIC50: −log10 of the molar value.
value-type: pIC50

# query: pIC50 of entry CCCCN1CC(C)C(O)C(O)C1 (stereo unspecified) [1-Butyl-5-methyl-piperidine-3,4-diol]
< 3.00

----------
Test: Compound was evaluated for inhibition of alpha-galactosidase from green coffee beans (sigma G 8507).
value-type: IC50

# query: IC50 of entry CCCCN1CC(C)C(O)C(O)C1 (stereo unspecified) [1-Butyl-5-methyl-piperidine-3,4-diol]
> 1000 µM
